# assaySystem: T1, Wild type CD117 purified protein (human, UniProt P10721 26-520, limits assumed)
# T1 construct: Protein used in BLI/kinetics and cryo-EM; also called wt CD117; Wt CD117
# T1 sequence (P10721 26-520 limits assumed): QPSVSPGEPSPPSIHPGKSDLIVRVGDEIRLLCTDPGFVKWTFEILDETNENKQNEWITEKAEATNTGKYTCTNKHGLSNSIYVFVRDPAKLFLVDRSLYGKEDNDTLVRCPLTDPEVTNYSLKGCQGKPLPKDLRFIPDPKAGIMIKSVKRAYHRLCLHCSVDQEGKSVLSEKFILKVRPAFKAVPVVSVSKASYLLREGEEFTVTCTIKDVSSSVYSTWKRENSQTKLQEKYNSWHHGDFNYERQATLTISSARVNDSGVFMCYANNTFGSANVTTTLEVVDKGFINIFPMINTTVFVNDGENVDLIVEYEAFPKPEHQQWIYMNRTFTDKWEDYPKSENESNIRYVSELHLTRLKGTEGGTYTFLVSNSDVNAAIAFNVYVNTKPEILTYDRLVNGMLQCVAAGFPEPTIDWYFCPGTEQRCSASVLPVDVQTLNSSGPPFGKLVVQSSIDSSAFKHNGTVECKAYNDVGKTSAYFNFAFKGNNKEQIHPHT
# test: monovalent KD, CD117 titrated (FIGS. 73A-73E)
measure: pKd
The meaning of pKd here: minus log10 of the concentration in molar units.

Completed entries (count: 2):
ABTx203 (antibody, human IgG1, V domains shown) VH: EVQLVESGGGLVQPGRSLRLSCAASGFTFDDYAMHWVRQAPGKGLEWVSGISWNSGTIGYADSVKGRFTNSRDNAKNSLYLEMNSLRAEDTALYYCAKDWPSGFCSSAYCYGAFDIWGQGTMVTVSS VL: DIVMTQSPSFLSASVGDRVTITCRASQGISSYLAWYQQKPGKAPKLLIYAASTLQNGVPSRFSGSGSGTDFTLTITSLQPEDFATYYCQQSYSTPYTFGQGTKLEIK ... 8.18
ABTx205 (antibody, human IgG1, V domains shown) VH: EVQLVESGGGLVQPGRSLRLSCAASGFTFDDYAMHWVRQAPGKGLEWVSGISWNSGTIGYADSVKGRFTNSRDNAKNSLYLEMNSLRAEDTALYYCAKDSPPGYCSSASCYGAFDIWGQGTMVTVSS VL: DIVMTQSPSFLSASVGDRVTITCRASQGISSYLAWYQQKPGKAPKLLIYAASTLQNGVPSRFSGSGSGTDFTLTITSLQPEDFATYYCQQSYSTPYTFGQGTKLEIK ... 8.68

Turning now to a further binder:
Please look up its pKd: ABTx206 (antibody, human IgG1, V domains shown) VH: EVQLVESGGGLVQPGRSLRLSCAASGFTFDDYAMHWVRQAPGKGLEWVSGISWNSGTIGYADSVKGRFTNSRDNAKNSLYLEMNSLRAEDTALYYCAKDSPPGYCSSASCYGAFDIRGQGTMVTVSS VL: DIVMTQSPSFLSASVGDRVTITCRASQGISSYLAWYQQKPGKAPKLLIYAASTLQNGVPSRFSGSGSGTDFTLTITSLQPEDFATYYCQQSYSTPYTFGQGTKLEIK
8.90
